The origin of these recorded values is ChEMBL document CHEMBL3271953.

Would you kindly list ED50 for each of these compounds?
Tested on: Rattus norvegicus
Test: Analgesic activity in im dosed Charles River rat by tail flick test
Assay type: functional
Reply with just the number (in mg/kg).

Query ED50 for CC[C@@]12CCCCCC(Cc3ccc(O)cc31)[C@@H]2N (mixture of isomers)
0.25

Query ED50 for CC[C@@]12CCCCCC(Cc3ccc(OC)cc31)[C@@H]2N.Cl (stereo in doubt; (+)-1)
10

Query ED50 for CC[C@@]12CCCCCC(Cc3ccc(O)cc31)[C@@H]2N (stereo in doubt; (+)-2)
2

Query ED50 for CC[C@@]12CCCCCC(Cc3ccc(OC)cc31)[C@@H]2N.Cl (stereo in doubt; (-)-1)
3.5

Query ED50 for CC[C@@]12CC/C=C\CC(Cc3ccc(O)cc31)[C@@H]2N.Cl (stereo in doubt; (-)-4)
4

Query ED50 for Br.C[C@@]12CCCCCC(Cc3ccc(O)cc31)[C@@H]2N (stereo in doubt; (-)-6)
0.12

Query ED50 for Br.C[C@@]12CCCCCC(Cc3ccc(O)cc31)[C@@H]2N (mixture of isomers)
0.45

Query ED50 for CC[C@@]12CCCCCC(Cc3ccc(OC)cc31)[C@@H]2N.Cl (mixture of isomers)
12

Query ED50 for CC[C@@]12CCCCCC(Cc3ccc(O)cc31)[C@@H]2N (stereo in doubt; (-)-2)
0.1

Query ED50 for CC[C@@]12CC/C=C\CC(Cc3ccc(O)cc31)[C@@H]2N.Cl (stereo in doubt; (+)-4)
0.195

Query ED50 for Br.C[C@@]12CCCCCC(Cc3ccc(O)cc31)[C@@H]2N (stereo in doubt; (+)-6)
95

====

Assay: Acute toxicity in po dosed rat
Assay type: organism-based
Settings: in vivo
READOUT KIND: LD50
Put down the number, then write its unit next to it.

Query LD50 for Br.C[C@@]12CCCCCC(Cc3ccc(O)cc31)[C@@H]2N (stereo in doubt; (-)-6)
200 mg/kg
